test system: LIMK1; details: concentration: 1 μM, replicates: in singlicate; n = 1;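 note: KINOMEscan kinase panel screen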
measurement_label: %Inh (%)

{"columns": ["compound", "result_units", "observed"],
 "data": [
  ["O=C(Nc1n[nH]c2cc(-c3ccccc3F)ccc12)C1CC1", "%", 0],
  ["O=C(Nc1ccc2c(c1)OCO2)NC1CCN(c2ccnc(NCc3ccc(F)cc3)n2)CC1", "%", 0],
  ["Nc1ncnc2c1ncn2-c1ccc(Cl)cc1", "%", 0],
  ["CCc1nc(-c2cccc(C)c2)c(-c2ccncc2)s1", "%", 0],
  ["CCc1ccc(-c2ccc3c(c2)-c2nn(C)cc2S(=O)(=O)N3C)cc1", "%", 0],
  ["COc1cc(Nc2ccnc3ccc(C(F)(F)F)cc23)cc(OC)c1OC", "%", 18],
  ["CCCC(=O)Nc1n[nH]c2ncc(-c3cccc4ccccc34)cc12", "%", 9],
  ["Nc1nccc2scc(-c3ccc4c(c3)CCN4C(=O)Cc3ccccc3)c12", "%", 3],
  ["COC(=O)c1c(-c2ccccc2)c2cc(Br)ccc2c(=O)n1Cc1ccc(NC(=O)CCC(=O)O)cc1", "%", 0],
  ["Cn1c(=O)c(F)c(Nc2ccc(I)cc2F)c2c(=O)n(OC[C@H](O)CO)cnc21", "%", 14],
  ["O=C(Nc1n[nH]c2nc(-c3ccccc3)c(Cl)cc12)C1CC1", "%", 9],
  ["Nc1n[nH]c2ncc(-c3ccccc3)cc12", "%", 0],
  ["COc1cc(Nc2nccc(N3CCC(NC(=O)C(C)c4ccc(Cl)cc4)C3)n2)cc(OC)c1OC (stereo not shown)", "%", 1],
  ["OCCCNc1nccc(-c2c(-c3cccc(C(F)(F)F)c3)nn3cc(C(F)(F)F)ccc23)n1", "%", 0],
  ["COc1ccc(CNC(=O)NC2CCN(c3ccnc(Nc4ccc(F)cc4)n3)C2)cc1 (stereo not shown)", "%", 0],
  ["COc1cccc(-n2cnc3c(N)ncnc32)c1", "%", 0],
  ["CCCNC(=O)Nc1ccc(Oc2ncnc3ccn(C)c23)cc1", "%", 0],
  ["Nc1nc(-c2ccccc2F)c(-c2ccnc3ccccc23)s1", "%", 1],
  ["O=C(NCc1cccs1)c1cc(C(=O)c2c(Cl)cccc2Cl)c[nH]1", "%", 6]
]}

###

Below, each entry is listed alongside its reported %Inh.
test system: SGK; conditions: concentration: 1 μM, replicates: in singlicate; n = 1

{"columns": ["test_smiles", "%Inh / %"],
 "data": [
  ["CCc1nc(-c2cccc(C)c2)c(-c2ccncc2)s1", 0],
  ["Cc1cc(Nc2nc(-c3cccc(C)n3)nc3ccccc23)ccn1", 0],
  ["Cn1c(=O)c(F)c(Nc2ccc(I)cc2F)c2c(=O)n(OC[C@H](O)CO)cnc21", 0],
  ["CCCNC(=O)Nc1ccc(Oc2ncnc3ccn(C)c23)cc1", 1],
  ["Cc1c(Cn2c(C)nn3c(=O)cc(N4CCO[C@H](C)C4)nc23)cccc1C(F)(F)F", 26]
]}

###

tested on: NEK5; conditions: concentration: 1 μM, replicates: in singlicate; n = 1
So basically: %Inh at 10% or higher? That is 1. Lower than 10%? That is -1.

{"columns": ["test_smiles", "class_assignment"],
 "data": [
  ["CN1C(=O)C(Nc2cc(Cl)c(O)c(Cl)c2)=C(c2ccc(Cl)cc2)C1=O", -1],
  ["COc1cc2ncn(-c3cc(OCc4ccncc4)c(C(N)=O)s3)c2cc1OC", 1],
  ["Cl.c1ccc(Cn2cnc3cc(Nc4ncnc5ccccc45)ccc32)cc1", 1],
  ["Nc1n[nH]c2nnc(-c3ccccc3)c(-c3ccccc3)c12", -1],
  ["Nc1nc(-c2ccccc2F)c(-c2ccnc3ccccc23)s1", -1],
  ["Nc1nccc2scc(-c3ccc4c(c3)CCN4C(=O)Cc3ccccc3)c12", 1],
  ["CCCC(=O)Nc1n[nH]c2ncc(-c3cccc4ccccc34)cc12", -1],
  ["COC(=O)c1c(-c2ccccc2)c2cc(Br)ccc2c(=O)n1Cc1ccc(S(C)(=O)=O)cc1", -1],
  ["COC(=O)c1c(-c2ccccc2)c2cc(C)ccc2c(=O)n1Cc1ccccc1", -1]
]}

###

tested on: QSK; conditions: concentration: 1 μM, replicates: in singlicate; n = 1
# note: exactly 5% is not below, so it is 0.0; use 1.0 for %Inh strictly under it

{"columns": ["molecule", "class_assignment"],
 "data": [
  ["OCCCNc1nccc(-c2c(-c3cccc(C(F)(F)F)c3)nn3cc(C(F)(F)F)ccc23)n1 [GW630813]", 1.0],
  ["Cc1nc(N(C)[C@H]2CN(C(=O)CC#N)CC[C@H]2C)c2cc[nH]c2n1", 1.0],
  ["COc1cc(Nc2ccnc3ccc(C(F)(F)F)cc23)cc(OC)c1OC [GW577382]", 0.0],
  ["CCCC(=O)Nc1n[nH]c2ncc(-c3cccc4ccccc34)cc12 [SB-642057]", 0.0],
  ["Nc1ncnc2c1ncn2-c1cccc(F)c1 [SKF-97560]", 0.0],
  ["Cc1cccc(-c2cc(-c3c[nH]nc3-c3ccccn3)ccn2)c1 [GW679395]", 1.0],
  ["Nc1ncnc2c1ncn2-c1ccc(Cl)cc1 [AH2635]", 1.0],
  ["COc1ccc(CNC(=O)NC2CCN(c3ccnc(Nc4ccc(F)cc4)n3)C2)cc1 (stereo not drawn) [GSK1379706]", 1.0]
]}

###

tested on: MEK1; construct: gene MAP2K1; conditions: concentration: 1 μM, replicates: in singlicate; n = 1

{"columns": ["compound", "%Inh / %"],
 "data": [
  ["COc1cccc(C2=C(Nc3cccc(C(=O)O)c3)C(=O)NC2=O)c1", 0],
  ["COc1cc(Nc2ccnc3ccc(C(F)(F)F)cc23)cc(OC)c1OC", 14],
  ["Cc1nnc(-c2ccc3ncn(-c4ccc(S(C)=O)cc4)c3c2)o1 (stereo not drawn)", 2],
  ["COc1cc(Nc2nccc(N3CCC(NC(=O)C(C)c4ccc(Cl)cc4)C3)n2)cc(OC)c1OC (stereo not drawn)", 0],
  ["Nc1ncnc2c1ncn2-c1cccc2ccccc12", 5],
  ["Cc1ccc(-c2ccc3c(ccc4sc5c(c43)NC[C@@H](C)N=C5N(C)C)n2)cn1", 0],
  ["CCC(=O)c1c(-c2ccccc2)c2cc(Cl)ccc2c(=O)n1Cc1cc(S(C)(=O)=O)n(CC(N)=O)n1", 1],
  ["Cc1ccccc1COc1cc(-n2cnc3cc(Cl)ccc32)sc1C(N)=O", 6],
  ["Nc1ncnc2c1ncn2-c1ccc(Cl)cc1", 0]
]}

###

tested on: FLT3-autoinhibited; settings: concentration: 1 μM, replicates: in singlicate; n = 1
measurement_label: %Inh (%)

{"columns": ["compound", "measurement_label", "result_units", "observed"],
 "data": [
  ["Cc1cccc(-c2nc(Nc3ccc4c(cnn4C)c3)c3ccccc3n2)n1 [GW876731]", "%Inh", "%", 0],
  ["CCS(=O)(=O)c1ccc(OC)c(Nc2ncc(-c3ccc(F)cc3)o2)c1.Cl [GW591947]", "%Inh", "%", 0],
  ["Cc1nnc(-c2ccc3ncn(-c4ccc(S(C)=O)cc4)c3c2)o1 (centres unmarked)", "%Inh", "%", 0],
  ["C[C@@H]1CC[C@H](C(=O)NC2CCCCC2)CN1c1cc(-c2ccc3c(N)n[nH]c3c2)nc(N)n1 [GSK2291363]", "%Inh", "%", 9],
  ["Cn1c(=O)c(F)c(Nc2ccc(I)cc2F)c2c(=O)n(OC[C@H](O)CO)cnc21", "%Inh", "%", 0]
]}

###

test system: ULK3; settings: concentration: 1 μM, replicates: in singlicate; n = 1
Label satisfied for high-side %Inh (at or above 10%) and not satisfied for low-side %Inh (below it).

{"columns": ["compound", "class_assignment"],
 "data": [
  ["CCS(=O)(=O)c1ccc(OC)c(Nc2ncc(-c3ccc(F)cc3)o2)c1.Cl", "not satisfied"],
  ["Cc1ccc(-c2ccc3c(ccc4sc5c(c43)NC[C@@H](C)N=C5N(C)C)n2)cn1", "not satisfied"],
  ["Cc1ccc(Oc2ccc(Nc3ncnc4cc[nH]c34)cc2C)cn1", "satisfied"],
  ["COc1cccc(C2=C(N(C)c3ccccc3)C(=O)NC2=O)c1", "satisfied"],
  ["Nc1ncnc2c1ncn2-c1ccc(Cl)cc1", "not satisfied"],
  ["COc1cccc(-n2cnc3c(N)ncnc32)c1", "satisfied"],
  ["Cc1nn2c(=O)cc(N3CCOCC3)nc2n1Cc1cccc(Cl)c1Cl", "satisfied"],
  ["Cc1cccc(-c2nc(Nc3ccc4c(cnn4C)c3)c3ccccc3n2)n1", "not satisfied"],
  ["Nc1ncnc2c1ncn2-c1cccc2ccccc12", "satisfied"],
  ["COC(=O)c1c(-c2ccccc2)c2cc(Br)ccc2c(=O)n1Cc1ccc(NC(=O)CCC(=O)O)cc1", "satisfied"],
  ["COc1cccc(C2=C(Nc3cccc(C(=O)O)c3)C(=O)NC2=O)c1", "not satisfied"],
  ["OCCCNc1nccc(-c2c(-c3cccc(C(F)(F)F)c3)nn3cc(C(F)(F)F)ccc23)n1", "not satisfied"],
  ["Nc1nccc2scc(-c3ccc4c(c3)CCN4C(=O)Cc3ccccc3)c12", "satisfied"],
  ["O=C(Nc1n[nH]c2nc(-c3ccccc3)c(Cl)cc12)C1CC1", "not satisfied"],
  ["Cc1c(Cn2c(C)nn3c(=O)cc(N4CCO[C@H](C)C4)nc23)cccc1C(F)(F)F", "satisfied"],
  ["COC(=O)c1c(-c2ccccc2)c2cc(C)ccc2c(=O)n1Cc1ccccc1", "not satisfied"],
  ["C[C@@H]1CC[C@H](C(=O)NC2CCCCC2)CN1c1cc(-c2ccc3c(N)n[nH]c3c2)nc(N)n1", "satisfied"],
  ["Cc1nnc(-c2ccc(C)c(-c3ccc(C(=O)O)cc3)c2)o1", "not satisfied"],
  ["COc1cc(OC)cc(-c2cc3cnc(N)nc3nc2NC(=O)NC(C)(C)C)c1", "not satisfied"],
  ["COc1cc2nccc(Nc3ccc(OCc4ccc(NC(C)=O)cc4)cc3)c2cc1OC.Cl", "satisfied"],
  ["COc1cc2ncn(-c3cc(OCCCc4ccccc4)c(C(N)=O)s3)c2cc1OC", "not satisfied"],
  ["O=C(Nc1ccc2c(c1)OCO2)NC1CCN(c2ccnc(NCc3ccc(F)cc3)n2)CC1", "not satisfied"],
  ["COc1ccc(Nc2nccc(N3CCC(NS(=O)(=O)c4ccc(NC(C)=O)cc4)C3)n2)cc1 (stereo not drawn)", "satisfied"],
  ["Nc1nc(N)c2nc(-c3ccccc3)[nH]c2n1", "satisfied"],
  ["Cc1ccccc1COc1cc(-n2cnc3cc(Cl)ccc32)sc1C(N)=O", "not satisfied"],
  ["O=c1cc(N2CCOCC2)nc2n(Cc3ccc(F)c(Cl)c3)ccn12", "not satisfied"],
  ["Nc1n[nH]c2ncc(-c3ccccc3)cc12", "satisfied"],
  ["CCS(=O)c1ccc(-c2coc3ccc(-c4nnc(C)o4)cc23)cc1 (stereo not drawn)", "not satisfied"],
  ["COc1cc(Nc2nccc(N3CCC(NC(=O)C4COc5ccccc5O4)C3)n2)cc(OC)c1OC (stereo not drawn)", "satisfied"],
  ["CCc1nc(-c2cccc(C)c2)c(-c2ccncc2)s1", "satisfied"],
  ["COc1cc(Nc2ccnc3ccc(C(F)(F)F)cc23)cc(OC)c1OC", "satisfied"],
  ["COc1cc2ncn(-c3cc(OCc4ccncc4)c(C(N)=O)s3)c2cc1OC", "not satisfied"],
  ["CCC(=O)c1c(-c2ccccc2)c2cc(Cl)ccc2c(=O)n1Cc1cc(S(C)(=O)=O)n(CC(N)=O)n1", "not satisfied"]
]}
